These data points were gathered from PubChem BioAssay (NCI).

- Tested on: OVCAR-5 ovarian
- EXPERIMENT DESCRIPTION: NCI-60 one-dose screen, 48 h
- EXPERIMENTAL PARAMETERS: 10 µM unless noted
The panel holds about 83,000 compounds, 20% with a hit somewhere; the sample as a whole holds those more often. Active and inactive are the calls of the source. Rule for the calls: active = growth percent below 10; inactive = the rest.
Select the matching outcome among active, inactive

Example entries begin here.
{"columns": ["COMPOUND", "ASSIGNED CATEGORY"],
 "data": [
  ["c1ccc(Nc2ccc(Nc3nc(-c4ccccc4)nc4ccccc34)cc2)cc1", "inactive"],
  ["O=C1/C(=C/c2cccc(Cl)c2)CCc2ccccc21", "inactive"],
  ["O=C(COc1cccc(/C=C2\\Cc3ccccc3C2=O)c1)c1ccc(Cl)cc1", "inactive"],
  ["CC(=O)OC1Oc2cc(C)c(C)cc2-c2oc(=O)c(-c3ccccc3)cc21 (stereo not given)", "inactive"],
  ["CSc1nc2nc3c(c(-c4ccc(C)cc4)c2c(=O)[nH]1)CN(C)C/C3=C\\c1ccc(C)cc1", "inactive"]
]}

### Prompt Field: outcome | Entry: COc1ccc(C(=O)COc2ccc(/C=C3\Oc4ccc5ccccc5c4C3=O)cc2)cc1
### Response inactive

### Prompt Answer briefly: the call reported for Fc1ccc(-c2nn3c(-c4cc(C(F)(F)F)cc(C(F)(F)F)c4)nnc3s2)cc1 in this assay.
### Response inactive

### Prompt Hello, I am checking results. What call was entered for COc1cc(/C=C/c2cc(/C=C/c3ccc(O)c(OC)c3)n(C(=O)c3ccc(Cl)cc3)n2)ccc1O ?
### Response inactive

### Prompt Assay outcome for N#CC1c2ccccc2C=CN1C(=O)N(c1ccccc1)c1ccccc1 (stereo not given) : what was it?
### Response inactive

### Prompt Which outcome was assigned to COc1ccc(C(=O)COc2cccc(/C=C3\CSc4ccc(Cl)cc4C3=O)c2)cc1 in this test?
### Response inactive

### Prompt Tell me the recorded outcome of this test for CC(NNC(=S)N1CCCCCC1)c1ccc2ccccc2n1 (stereo not given) .
### Response inactive

### Prompt Give the logged outcome of this assay for the following compound: Cc1cc2ccccn2c1C(=O)c1ccc(C(=O)c2ccccc2)cc1
### Response inactive

### Prompt Per the records of this test, what outcome belongs to COc1ccc(CC(=O)Nc2nn3c(-c4cc(C(F)(F)F)cc(C(F)(F)F)c4)nnc3s2)cc1 ?
### Response inactive

### Prompt Could you kindly confirm the outcome this assay logged for COc1cccc2c1C(=O)c1c(O)c3c(c(O)c1C2=O)C[C@@](O)(C(C)=O)C[C@@H]3O[C@H]1C[C@H](N)[C@H](O)[C@H](C)O1 ?
### Response active

### Prompt What was the test verdict on CCCCCCCCCCCCC1CCCC(C)C1 (stereo not given) ?
### Response inactive

###

- System: CAKI-1 renal
- EXPERIMENT DESCRIPTION: NCI-60 one-dose screen, 48 h (100 = growth as untreated, 0 = no growth, -100 = all killed)
- EXPERIMENTAL PARAMETERS: 10 µM unless noted
The panel holds about 83,000 compounds, 20% with a hit somewhere; the sample as a whole holds those more often.
Exam item: assign y to entries whose growth is below 90% and n to entries at or above 90%. Note that a value of exactly 90% receives n.

{"columns": ["COMPOUND", "ASSIGNED CATEGORY"],
 "data": [
  ["CCOC(=O)c1cc2oc(/C=C/c3cc(=O)c4cc(Cl)ccc4o3)cc2[nH]1", "y"]
]}

### Prompt Below 90% on growth? Entry C[C@]12CCC(=O)C=C1CCC1C2[C@@H](O)C[C@@]2(C)C1CC[C@]2(O)C(=O)COC(=O)CCC(=O)O (stereo not given in full)
### Response y

### Prompt Please determine if N#Cc1c(-c2ccccc2)cc(-c2ccccc2)n(CCCC(=O)O)c1=O is below 90% in terms of growth.
### Response n

###

Would you mind telling me the reported growth of each entry?
- Tested on: PC-3 prostate
- EXPERIMENT DESCRIPTION: NCI-60 one-dose screen, 48 h (100 = growth as untreated, 0 = no growth, -100 = all killed)
- EXPERIMENTAL PARAMETERS: 10 µM unless noted
This is part of a sample that, as a whole, favours compounds with a hit. Of some 83,000 tested, about 20% had one in any assay.
One number for each entry, in %.

{"columns": ["COMPOUND", "growth, %"],
 "data": [
  ["FC(F)(F)c1cc(-c2nnc3n2N=C(N2CCCC2)CS3)cc(C(F)(F)F)c1", 84.2]
]}

// each compound listed below needs its growth
1. Cc1cc2ccccn2c1C(=O)c1ccc(C(=O)c2ccccc2)cc1
2. Cc1ncc(C(=O)Nc2ccc(CN3CCN(C)CC3)c(C(F)(F)F)c2)cc1C#Cc1cncc2ncccc12
3. O=C(Oc1ccccc1)C(Br)C(Br)c1ccccc1 (stereo not given)
4. O=C(COc1ccc(/C=C2\Cc3ccccc3C2=O)cc1)c1ccc(Cl)cc1

### Response
85.2
90.6
55.4
92.1

###

- Test system: BT-549 breast
- EXPERIMENT DESCRIPTION: NCI-60 one-dose screen, 48 h
- EXPERIMENTAL PARAMETERS: 10 µM unless noted
About 83,000 compounds went through this panel and 20% of them were active in at least one assay; those are over-represented in the sample as a whole. Calls of active or inactive are those of the source. The calls were made as follows: active = growth percent below 10; inactive = the rest.
// allowed return values: active, inactive

{"columns": ["MOLECULE", "SYSTEM UNDER TEST", "ASSIGNED CATEGORY"],
 "data": [
  ["COc1ccc(/C=C2/SC(=Nc3c(C)nn(-c4ccccc4)c3N)NC2=O)cc1", "BT-549 breast", "inactive"]
]}

### Prompt Fill in: this test's call for Nc1nc(SCc2cccnc2)c2ncn(C3OC(CO)C(O)C3O)c2n1 (stereo not drawn) is ___
### Response inactive

###

- Test system: SK-MEL-2 melanoma
- EXPERIMENT DESCRIPTION: NCI-60 one-dose screen, 48 h
- EXPERIMENTAL PARAMETERS: 10 µM unless noted
This is part of a sample that, as a whole, favours compounds with a hit. Of some 83,000 tested, about 20% had one in any assay. Activity calls are given as the source filed them. How the source made its calls: active means growth percent below 10; inactive means the rest.
Hi there, use one of these labels in your reply, thanks! 1.0 = active, 0.0 = inactive

Some entries whose results are on file:
{"columns": ["MOLECULE", "ASSIGNED CATEGORY"],
 "data": [
  ["C[C@@H]1[C@H]2[C@H](C=C3[C@@H]4CC[C@H]5Cc6nc7c(nc6C[C@]5(C)[C@H]4C[C@@H](O)[C@@]32C)C[C@@H]2CC[C@H]3C4=C[C@@H]5O[C@@]6(CC[C@](C)(CO)O6)[C@@H](C)[C@@]5(O)[C@@]4(C)[C@H](O)C[C@@H]3[C@@]2(C)C7)O[C@]12CCC(C)(C)O2", 0.0],
  ["c1ccc2nc(Cn3c[n+](Cc4ccc5ccccc5n4)c4ccccc43)ccc2c1", 0.0],
  ["O=C(COc1ccc(/C=C2\\Oc3ccc4ccccc4c3C2=O)cc1)c1ccc(Cl)cc1", 0.0],
  ["COc1cccc2c1C(=O)c1c(O)c3c(c(O)c1C2=O)C[C@@](O)(C(C)=O)C[C@@H]3O[C@H]1C[C@H](N)[C@H](O)[C@H](C)O1", 1.0],
  ["Cc1cc(-c2ccccc2)cc(C)n1", 0.0],
  ["c1ccc(CN=C(NCc2ccccc2)NCc2ccccc2)cc1", 0.0],
  ["O=C1NC(=S)S/C1=C\\c1cc(Br)ccc1O", 0.0],
  ["CCCCCCCCCCN1CCC(N2CCCCC2)CC1", 1.0],
  ["Cc1ccc2nc(SCC(=O)Nc3ccc(-c4nc5ccccc5s4)c(Cl)c3)[nH]c2c1", 0.0],
  ["COc1ccc(CNC(=O)c2c(C)n([O-])c3ccc(OC)cc3[n+]2=O)cc1", 0.0]
]}

### Prompt Recorded call for COc1cnc2c(c1)C(=O)c1c-2n(CCCNC(C)C)c(=O)c2cc(F)ccc12 ?
### Response 1.0

### Prompt State the result this test recorded for OCc1n(Cc2ccc3ccccc3c2)cc[n+]1Cc1ccc2ccccc2c1 .
### Response 0.0

### Prompt Tell me the assay call for CC(C)=CCNc1ncnc2c1ncn2C1OC(COP(=O)(O)O)C(O)C1O (stereo not drawn) please.
### Response 0.0

### Prompt Please let me know the test result on file for CCCCCc1c(C)[nH]c(/C=C2\N=C(c3ccc[nH]3)C=C2OCc2ccccc2)c1C .
### Response 1.0

### Prompt What did this assay record as the result for O=C(O)c1ccc2cccnc2c1O ?
### Response 1.0

### Prompt Hello, I am checking results. What call was entered for COc1cccc(-c2nc(-c3ccc(N)cc3)co2)c1 ?
### Response 0.0

### Prompt // return assay outcome for CCCCc1ccc(C(N)=O)nc1
### Response 0.0

### Prompt Assay outcome for CCOC(=O)OCC(=O)[C@@]1(O)CC[C@H]2[C@@H]3CCC4=CC(=O)CC[C@]4(C)[C@H]3[C@@H](O)C[C@@]21C : what was it?
### Response 0.0

### Prompt Assay result, entry COc1ccc2c3c(ccc2c1)C(=O)/C(=C\O)CC3 — outcome?
### Response 0.0

### Prompt Record request — test call for O=C1OC2(c3ccccc31)c1ccccc1-c1ccccc12
### Response 0.0

### Prompt What did the test return for CCSc1nc(-c2cccs2)n2nc(-c3ccco3)cc2n1 ?
### Response 0.0

### Prompt Hi team, can someone confirm the assay call for CCCCCN1C(=O)CCC1=O ?
### Response 0.0

### Prompt Dear all, I need the recorded test outcome for C(=C1c2ccccc2-c2ccccc21)c1ccncc1 , thank you.
### Response 0.0
